Recorded measurements of %Inh, one per entry
- Test system: MST4
- assay.context: concentration: 1 μM, replicates: in singlicate; n = 1;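 note: KINOMEscan kinase panel screen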

compound | %Inh / %
COc1cc(Nc2nccc(N3CCC(NC(=O)Nc4ccc5c(c4)OCO5)C3)n2)cc(OC)c1OC (stereo not drawn) [GSK1379766] | 0
COc1cccc2c(-c3ccncc3)c(-c3ccc(F)cc3)nn12 [GW468513] | 0
Cc1cc(-c2c(-c3ccc(F)cc3)ncn2CCCN2CCOCC2)nc(N)n1 [SB-222517] | 1
CN(C)c1ncnc2nc[nH]c12 [SKF-31736] | 1
CC(=O)Nc1cn2nc(Oc3cccc(NC(=O)c4cccc(C(F)(F)F)c4)c3)ccc2n1 | 0
CCNc1nccc(-c2c(-c3ccc(F)cc3)ncn2C2CCN(C)CC2)n1 | 0
CN(C)CCOc1ccc(-c2cc(-c3ccc(Cl)c(O)c3)c(-c3ccncc3)[nH]2)cc1.Cl.Cl [SB-684387] | 0
Nc1ncc(-c2ccc3nccc(-c4ccncc4)c3c2)cc1S(=O)(=O)N1CCCCC1 [GSK1693850] | 0
O=C(Nc1n[nH]c2nc(-c3ccccc3)ccc12)C1CC1 [SB-708999] | 41

----------
- System: PAK3
- assay.context: concentration: 1 μM, replicates: in singlicate; n = 1
Recorded measurements of %Inh, one per entry

input.smiles | subject.of.test | measurement.units | %Inh
Cc1cc(-c2c(-c3ccc(F)cc3)ncn2CCCN2CCOCC2)nc(N)n1 | PAK3 | % | 0
CC(C)c1nc(-c2cccc(NS(=O)(=O)c3c(F)cccc3F)c2)c(-c2ccnc(Nc3ccc(N4CCOCC4)nc3)n2)s1.Cl | PAK3 | % | 73
Cc1ccc(NC(=O)c2cccc(N3CCCCC3)c2)cc1-c1ccc(C(=O)NCC2CC2)cc1 | PAK3 | % | 21
CS(=O)(=O)c1cccc(CNc2nc(Nc3ccc4c(c3)CCC(=O)N4)ncc2C(F)(F)F)c1 | PAK3 | % | 0
CN(C)CCNS(=O)(=O)c1ccc(-c2ccnc3[nH]ccc23)cc1 | PAK3 | % | 71
CN(C)c1ncnc2nc[nH]c12 | PAK3 | % | 12
O=C(O)C(F)(F)F.O=c1[nH]ccc2nc(N[C@@H]3CCNC3)nc(Nc3cc(Cl)cc(Cl)c3)c12 | PAK3 | % | 96.9
O=C(Nc1n[nH]c2nc(-c3ccccc3)ccc12)C1CC1 | PAK3 | % | 5

----------
- System: STK39
- assay.context: concentration: 1 μM, replicates: in singlicate; n = 1
outcome.measure: %Inh (%)

compound | quantitative.readout
O=C(Nc1n[nH]c2cc(-c3cccs3)ccc12)C1CC1 [SB-731284] | 0
CN(c1ccc2c(c1)nc(NCc1ccccc1)n2C)c1ccnc(Nc2ccc(CS(C)(=O)=O)cc2)n1.Cl [GW811603] | 7
CNc1nccc(-c2ccc3c(N)n[nH]c3c2)n1 [GSK2206003] | 0
CN(C)CCNS(=O)(=O)c1ccc(-c2ccnc3[nH]ccc23)cc1 [GSK977620] | 5
Cc1nn2c(=O)cc(N3CCO[C@H](C)C3)nc2n1Cc1cccc(Cl)c1Cl [GSK2373693] | 5
Cn1cc(-c2ccc3c(c2)CCN3C(=O)Cc2cc(F)cc(C(F)(F)F)c2)c2c(N)ncnc21 [GSK2635225] | 0
Cl.Cl.NCC(NC(=O)c1cc(-c2cccnc2)c(-c2ccnc3[nH]ccc23)s1)c1ccccc1 (stereo not drawn) [GSK1323434] | 64
Nc1ncc(-c2ccc3nccc(-c4ccncc4)c3c2)cc1S(=O)(=O)N1CCCCC1 [GSK1693850] | 0
COc1ccc(NC(=O)c2ccoc2)cc1-c1ccc(C(=O)NCC2CC2)cc1 [GW810437] | 10
COc1cccc(-c2nc(-c3ccccc3)[nH]c2-c2ccncc2)c1 [SB-610250] | 19
O=C(O)C(F)(F)F.O=c1[nH]ccc2nc(N[C@@H]3CCNC3)nc(Nc3cc(Cl)cc(Cl)c3)c12 [GSK2188764] | 75
Cc1ccc(NC(=O)c2cccc(N3CCCCC3)c2)cc1-c1ccc(C(=O)NCC2CC2)cc1 [GSK1917008] | 0
Cc1ccc(C)c(NC(=O)Nc2ccc(C)c(-c3ccc(C(=O)Nc4ccncc4)cc3)c2)c1 [GSK1398473] | 5
CCn1cnc2c(NCc3ccccc3)ncnc21 [SKF-96418] | 16
CC(C)c1nc(-c2ccc(F)c(NS(=O)(=O)c3c(F)cccc3F)c2)c(-c2ccnc(Nc3ccc(N4CCOCC4)nc3)n2)s1 [GSK1804250] | 11
CC(C)c1nc(-c2cccc(NS(=O)(=O)c3c(F)cccc3F)c2)c(-c2ccnc(Nc3ccc(N4CCOCC4)nc3)n2)s1.Cl [GSK1723980] | 10
COc1cc(Nc2ccnc3cc(-c4ccncc4)ccc23)cc(OC)c1OC.Cl [GW494610] | 11
CC(C)NCC(Cc1ccccc1)NC(=O)c1cc(Br)c(-c2ccnc3[nH]ccc23)s1.Cl.Cl (stereo not drawn) [GSK1383281] | 0
COc1cccc(C2=C(Nc3cccc(O)c3)C(=O)NC2=O)c1 [SB-390771] | 8
CCn1c(-c2nonc2N)nc2c(-c3ccccc3)ncc(OCCCN)c21.O=C(O)C(F)(F)F.O=C(O)C(F)(F)F [GSK260205] | 7
CN(c1ccc(NC(=O)Nc2cccc(Cl)c2)cc1)c1ccnc(N)n1.Cl [GW830707] | 0
Cc1cccc(Nc2nc(N[C@H]3CCCC[C@H]3N)ncc2C(N)=O)c1.Cl [GSK986310] | 12
Cn1cc(-c2ccc3c(c2)CCN3C(=O)Cc2cc(F)cc(F)c2F)c2c(N)ncnc21 [GSK2634140] | 0
CCNC(=O)/C=C/c1n[nH]c2cc(Sc3ccccc3C(=O)NC)ccc12 | 0
Fc1cc(Cl)ccc1Nc1ccnc2cc(-c3ccc(CN4CCOCC4)o3)ccc12 [GW560109] | 10
COC(=O)Nc1nc2ccc(Oc3ccc(NC(=O)Nc4cc(C(F)(F)F)ccc4F)cc3)cc2[nH]1.Cl [GW654607] | 13
O=C(O)C(F)(F)F.O=c1[nH]ccc2nc(N[C@@H]3CCNC3)nc(Nc3ccc4c(c3)S(=O)(=O)CC4)c12 [GSK2181306] | 84
COc1cccc2c(-c3ccncc3)c(-c3ccc(F)cc3)nn12 [GW468513] | 14
COc1cccc(CC(=O)N2CCc3cc(-c4cn(C)c5ncnc(N)c45)ccc32)c1 [GSK2608899] | 22
CN(c1ccc(F)c(NC(=O)c2cccc(OC(C)(C)C#N)c2Cl)c1)c1ccc2nc(NC(=O)C3CC3)sc2n1 | 12
COc1cc(Nc2nccc(N3CCC(NS(=O)(=O)c4ccc(NC(C)=O)cc4)CC3)n2)cc(OC)c1OC [GSK1379825] | 0
Cc1ccc(-c2ccc3occ(-c4ccc(S(C)=O)cc4)c3c2)nn1 (stereo not drawn) | 0
Cc1ccccc1CC(=O)N1CCc2cc(-c3cn(C)c4ncnc(N)c34)ccc21 [GSK2603346] | 13

----------
Recorded measurements of %Inh, one per entry
- Tested on: EPHB3
- assay.context: concentration: 1 μM, replicates: in singlicate; n = 1
outcome.measure: %Inh (%)

input.smiles | outcome.measure | quantitative.readout
CN(c1ccc(NC(=O)Nc2cccc(Cl)c2)cc1)c1ccnc(N)n1.Cl | %Inh | 62
Cc1ccc(C)c(NC(=O)Nc2ccc(C)c(-c3ccc(C(=O)Nc4ccncc4)cc3)c2)c1 | %Inh | 12
N#Cc1cnc2cc(-c3cnc(CNCCN4CCOCC4)s3)ccc2c1Nc1ccc(Oc2ccccc2)cc1 | %Inh | 10
CN(c1ccc2c(c1)nc(NCc1ccccc1)n2C)c1ccnc(Nc2ccc(CS(C)(=O)=O)cc2)n1.Cl | %Inh | 0
Cc1ccc(NC(=O)c2ccnc(N3CCCCC3)c2)cc1-c1ccc(C(=O)NCC2CC2)cc1 | %Inh | 0
Cc1cc(-c2ccnc(Nc3cccc(C#N)c3)n2)cc(C)c1O | %Inh | 18
COc1cccc(C2=C(Nc3cccc(O)c3)C(=O)NC2=O)c1 | %Inh | 31
Cn1cc(-c2ccc3c(c2)CCN3C(=O)Cc2cc(F)cc(F)c2F)c2c(N)ncnc21 | %Inh | 11

----------
- Tested on: PKAC-alpha
- Construct: gene PRKACA
- assay.context: concentration: 1 μM, replicates: in singlicate; n = 1
outcome.measure: %Inh (%)

input.smiles | subject.of.test | outcome.measure | quantitative.readout
Fc1cc(Cl)ccc1Nc1ccnc2cc(-c3ccc(CN4CCOCC4)o3)ccc12 | PKAC-alpha | %Inh | 8
COc1cccc2c(-c3ccncc3)c(-c3ccc(F)cc3)nn12 | PKAC-alpha | %Inh | 23
CS(=O)(=O)c1cccc(CNc2nc(Nc3ccc4c(c3)CCC(=O)N4)ncc2C(F)(F)F)c1 | PKAC-alpha | %Inh | 0
O=C(O)C(F)(F)F.O=c1[nH]ccc2nc(N[C@@H]3CCNC3)nc(Nc3cc(Cl)cc(Cl)c3)c12 | PKAC-alpha | %Inh | 20
